biological target: Glucagon-like peptide-1 receptor extracellular domain; assay: SPR; Biacore 8K, according to the user's manual; who was immobilised and the conditions are not stated

>  <binder>
FFYSSPSAYLEKGGPSSGAPPPS [PEP16]

>  <Kd / nM>
25

$$$$

src = paper PMC6412877
